Tested on: Vero E6
Method: cell viability relative to DMSO; higher = less toxic
Assay Context: 72 h; 1000 nM
Observation Type: cell viability (%)
Give bare numbers, in %.

These recorded examples may help you get a feel for the data.
CC(C)Oc1ccc(-c2cnc3c(-c4ccnc5ccccc45)cnn3c2)cc1 | 104
Cc1nnc2n1-c1sc(CCC(=O)N3CCOCC3)cc1C(c1ccccc1Cl)=NC2 | 105
Cc1c(O)cccc1C(=O)N[C@@H](CSc1ccccc1)[C@H](O)CN1C[C@H]2CCCC[C@H]2C[C@H]1C(=O)NC(C)(C)C | 97.3

Working through the 4 molecules below one at a time, give cell viability for each.
1. CC1CCc2c(N3CCC(O)CC3)c(F)cc3c(=O)c(C(=O)O)cn1c23 (stereo not drawn)
2. CC(C)C1=C2[C@H]3CC[C@@H]4[C@@]5(C)CC[C@H](OC(=O)CC(C)(C)C(=O)O)C(C)(C)[C@@H]5CC[C@@]4(C)[C@]3(C)CC[C@@]2([C@@H](O)CN(CCN(C)C)Cc2ccc(Cl)cc2)CC1=O
3. Cc1cc(C2CCCCC2)n(O)c(=O)c1
4. COc1c(C)c(C(=O)c2ccc(N)c(C(=O)O)c2)n2ccccc12

1: 95.7; 2: 99.5; 3: 89.6; 4: 100

# cell viability lookup, item `COc1ccc(Cc2nccc3cc(OC)c(OC)cc23)cc1OC` 108

###

Tested on: Calu-3
Method: cell viability relative to DMSO; higher = less toxic
Assay Context: 72 h; 10 nM
So I've got a bunch of molecules here, and I need their cell viability values.
One number for each entry, in %.

COc1cc(N)c(Cl)cc1C(=O)CCC1CCN(CCNS(C)(=O)=O)CC1 | 92.6
COc1cc2ncnc(Nc3ccc(F)c(Cl)c3)c2cc1NC(=O)/C=C/CN1CCCCC1 [dacomitinib] | 73.7
Cc1ncc(C)n2nc([C@@H]3C[C@H]3c3nc4c5cccnc5ccn4c3C)nc12 [PDE10-IN-1] | 98
CN1CCC(=C2c3ccccc3Sc3ccccc32)CC1 [pimethixene] | 105
N#Cc1cc2nc(O)c(O)nc2cc1[N+](=O)[O-] [CNQX] | 101

Each molecule below has a reported value. Please supply its cell viability.
1. COc1ccc(Cl)cc1C(=O)NCCc1ccc(C(=O)O)cc1 [meglitinide]
2. Cc1cc(C)nc(SCC(=O)Nc2ncc(Cc3cccc4ccccc34)s2)n1 [SirReal-2]
3. c1ccc2c(c1)CCC[C@H]2Nc1nc2ccccc2[nH]1 [NS-8593]
4. Cc1nc2ccccc2c(-c2ccc3c4c(ccnc24)CCO3)c1[C@H](OC(C)(C)C)C(=O)O

103
95.7
96.2
102

###

Tested on: HepG2
Method: cell viability relative to DMSO; higher = less toxic
Assay Context: 72 h; 10 nM
Assign cell viability to each entry below.
Numbers only, in %.

c1ccc2c(c1)CCC[C@H]2Nc1nc2ccccc2[nH]1 [NS-8593] | 96.8

Give measured cell viability for every item shown.
1. CCCCn1c(-c2ccccc2)nc(-c2ccccc2)c1CN(Cc1ccc2c(c1)OCO2)Cc1ccc2c(c1)OCO2
2. CCOC(=S)SSC(=S)OCC [dixanthogen]
3. O=C(CN1CCN(Cc2ccc3c(c2)OCO3)CC1)N1c2ccccc2Sc2ccccc21 [fenoverine]
4. C[C@](O)(COc1ccc(C#N)cc1)C(=O)Nc1ccc(C#N)c(C(F)(F)F)c1 [ostarine]
5. CC1=C(CCC(=O)O)c2cc3[nH]c(cc4nc(cc5[nH]c(cc1n2)c(C)c5C(C)O)C(C)=C4C(C)O)c(C)c3CCC(=O)O (stereo not drawn) [hematoporphyrin]

[102, 111, 104, 107, 99.9]
